Kindly supply the reported combination Emax values for the records listed here.
# Test system: UMC-11 (Other Solid Carcinomas)
# Method Notes: combination Emax (second highest fraction inhibited in the dose matrix, 72 h); higher = more inhibition; extreme values may be limits of the assay
Give bare numbers.

A selection of reference data follows.
1. C=CCn1c(=O)c2cnc(Nc3ccc(N4CCN(C)CC4)cc3)nc2n1-c1cccc(C(C)(C)O)n1 [AZD1775] + C[C@@H]1COCCN1C2=NC(=NC(=C2)C3(CC3)[S@](=N)(=O)C)C4=C5C=CNC5=NC=C4 [AZD6738] (first compound max 1 µM, partner max 10 µM)
0.785
2. NC1(C(=O)N[C@@H](CCO)c2ccc(Cl)cc2)CCN(c2ncnc3[nH]ccc23)CC1 [Capivasertib] + Cn1cnc2c(F)c(Nc3ccc(Br)cc3Cl)c(C(=O)NOCCO)cc21 [Selumetinib] (first compound max 10 µM, 7x7, partner max 10 µM)
0.279

Report combination Emax for every entry below.
1. COc1cccc(OCCCN)c1-c1cc(Nc2cnc(C#N)cn2)n[nH]1 [Prexasertib] + CN(C)CCCOc1ccc(-c2ccc3ncc4c(c3c2)n(C2CCOCC2)c(=O)n4C)cn1 [AZD0156] (first compound max 1 µM, 7x7, partner max 1 µM)
2. CC1(C)CCC(CN2CCN(c3ccc(C(=O)NS(=O)(=O)c4ccc(NCC5CCOCC5)c([N+](=O)[O-])c4)c(Oc4cnc5[nH]ccc5c4)c3)CC2)=C(c2ccc(Cl)cc2)C1 [Venetoclax] + Cc1cc2ncnn2cc1Nc1ncc2c(n1)n(C1CCOCC1)c(=O)n2C [AZD7648] (first compound max 1 µM, 7x7, partner max 10 µM)

### Response
1: 0.902; 2: 0.414

###

Kindly supply the reported Bliss excess values for the records listed here.
# System: SH-4 (Melanoma);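 further: after 72 h of two-drug dosing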
# Method Notes: Bliss excess, mean over the matrix (fraction); higher = more synergy
Numbers only.

1. COc1nnc2ccc(N3CCC(c4ccc(OCCN5CCN(C)C(=O)[C@H]5C)cc4)CC3)nn12 [AZD5153] + Cn1cnc2c(F)c(Nc3ccc(Br)cc3Cl)c(C(=O)NOCCO)cc21 [Selumetinib] (first compound max 1 µM, 7x7, partner max 10 µM)
0.0222

Consider the record given below.
### Prompt Using the record for Cc1cc2ncnn2cc1Nc1ncc2c(n1)n(C1CCOCC1)c(=O)n2C [AZD7648] + O=C(c1cc(Cc2n[nH]c(=O)c3ccccc23)ccc1F)N1CCN(C(=O)C2CC2)CC1 [Olaparib] (first compound max 10 µM, 7x7, partner max 10 µM) , report its Bliss excess.
### Response -0.0401

###

# Tested on: SW1271 (Small Cell Lung Carcinoma)
# Method Notes: combination Emax (second highest fraction inhibited in the dose matrix, 72 h); higher = more inhibition; extreme values may be limits of the assay
Kindly supply the reported combination Emax values for the records listed here.
Numbers only.

1. C[C@@H]1COCCN1c1cc(C2([S@](C)(=N)=O)CC2)nc(-c2ccnc3[nH]ccc23)n1 [AZD6738] + C1CC(C1)(C(=O)[O-])C(=O)[O-].N.N.[Pt+2] [Carboplatin] (first compound max 10 µM, 7x7, partner max 10 µM)
0.356
2. COc1nnc2ccc(N3CCC(c4ccc(OCCN5CCN(C)C(=O)[C@H]5C)cc4)CC3)nn12 [AZD5153] + CCN(CCO)CCCOc1ccc2c(Nc3cc(CC(=O)Nc4cccc(F)c4)[nH]n3)ncnc2c1 [AZD2811] (first compound max 1 µM, 7x7, partner max 1 µM)
0.534
3. CC1(C)CCC(CN2CCN(c3ccc(C(=O)NS(=O)(=O)c4ccc(NCC5CCOCC5)c([N+](=O)[O-])c4)c(Oc4cnc5[nH]ccc5c4)c3)CC2)=C(c2ccc(Cl)cc2)C1 [Venetoclax] + C=CCn1c(=O)c2cnc(Nc3ccc(N4CCN(C)CC4)cc3)nc2n1-c1cccc(C(C)(C)O)n1 [AZD1775] (first compound max 1 µM, partner max 1 µM)
0.552
4. COc1nnc2ccc(N3CCC(c4ccc(OCCN5CCN(C)C(=O)[C@H]5C)cc4)CC3)nn12 [AZD5153] + CC1(C)CCC(CN2CCN(c3ccc(C(=O)NS(=O)(=O)c4ccc(NCC5CCOCC5)c([N+](=O)[O-])c4)c(Oc4cnc5[nH]ccc5c4)c3)CC2)=C(c2ccc(Cl)cc2)C1 [Venetoclax] (first compound max 1 µM, 7x7, partner max 1 µM)
0.57
5. O=C(c1cc(Cc2n[nH]c(=O)c3ccccc23)ccc1F)N1CCN(C(=O)C2CC2)CC1 [Olaparib] + Cc1c2c(nn1C)CSCc1cc(n(C)n1)CSc1cc(c3ccccc3c1)OCCCc1c(C(=O)O)n(C)c3c-2c(Cl)ccc13 [AZD5991] (first compound max 10 µM, 7x7, partner max 1 µM)
0.131
6. C=CCn1c(=O)c2cnc(Nc3ccc(N4CCN(C)CC4)cc3)nc2n1-c1cccc(C(C)(C)O)n1 [AZD1775] + C[C@@H]1COCCN1C2=NC(=NC(=C2)C3(CC3)[S@](=N)(=O)C)C4=C5C=CNC5=NC=C4 [AZD6738] (first compound max 1 µM, partner max 10 µM)
0.637

Consider the record given below.
### Prompt Using the record for C=CCn1c(=O)c2cnc(Nc3ccc(N4CCN(C)CC4)cc3)nc2n1-c1cccc(C(C)(C)O)n1 [AZD1775] + C1CN(CCC1(C(=O)N[C@@H](CCO)C2=CC=C(C=C2)Cl)N)C3=NC=NC4=C3C=CN4 [Capivasertib] (first compound max 3 µM, partner max 3 µM) , report its combination Emax.
### Response 0.682
